Experiment: Single dose PK in healthy subjects (Cohorts 1, 2, S1 and S2), plasma
Type: in vivo, human
Conditions: human, plasma, intravenous, 240 mg; 1.5 hr; read-out: Plasma concentration, Mean
QUANTITY: concentration at 1.5 h (ng/mL)
One number for each entry, in ng/mL.

Exercise: # concentration at 1.5 h lookup, item COC(=O)N1CCC[C@H](NS(C)(=O)=O)[C@@H]1CO[C@H]1CC[C@@H](c2ccccc2)CC1 [Compound A]
Key: 388

----------
Assay: Single dose PK in healthy subjects (Cohorts 1, 2, S1 and S2), plasma
Format: in vivo, human
Details: human, plasma, intravenous, 180 mg; 6 hr; read-out: Plasma concentration, Q3
QUANTITY: concentration at 6 h (ng/mL)
Numbers only, in ng/mL.

Exercise: # concentration at 6 h lookup, item `COC(=O)N1CCC[C@H](NS(C)(=O)=O)[C@@H]1CO[C@H]1CC[C@@H](c2ccccc2)CC1`
Key: 311

----------
Experiment: Single dose PK in healthy subjects (Cohorts 1, 2, S1 and S2), plasma
Format: in vivo, human
Details: human, plasma, intravenous, 180 mg; 2 hr; read-out: Plasma concentration, Minimum
QUANTITY: concentration at 2 hr (ng/mL)
One number for each entry, in ng/mL.

Exercise: # concentration at 2 hr lookup, item `COC(=O)N1CCC[C@H](NS(C)(=O)=O)[C@@H]1CO[C@H]1CC[C@@H](c2ccccc2)CC1`
Key: 251

----------
Experiment: Single dose PK in healthy subjects (Cohorts 1, 2, S1 and S2), plasma
Assay type: in vivo, human
Conditions: human, plasma, intravenous, 7 mg; 9 hr; read-out: Plasma concentration, Mean
QUANTITY: concentration at 9 h (ng/mL)
One number for each entry, in ng/mL.

Exercise: # concentration at 9 h lookup, item COC(=O)N1CCC[C@H](NS(C)(=O)=O)[C@@H]1CO[C@H]1CC[C@@H](c2ccccc2)CC1 [Compound A]
Key: 13.5

----------
Experiment: Single dose PK in healthy subjects (Cohorts 1, 2, S1 and S2), plasma
Format: in vivo, human
Details: human, plasma, intravenous, 180 mg; 4 hr; read-out: Plasma concentration, Mean
QUANTITY: concentration at 4 hr

Exercise: # concentration at 4 hr lookup, item `COC(=O)N1CCC[C@H](NS(C)(=O)=O)[C@@H]1CO[C@H]1CC[C@@H](c2ccccc2)CC1`
Key: 328 ng/mL

----------
Test: Single dose PK in healthy subjects (Cohorts 1, 2, S1 and S2), plasma
Format: in vivo, human
Settings: human, plasma, intravenous, 56 mg; 1.5 hr; read-out: Plasma concentration, Mean
QUANTITY: concentration at 1.5 h (ng/mL)
One number for each entry, in ng/mL.

Exercise: # concentration at 1.5 h lookup, item COC(=O)N1CCC[C@H](NS(C)(=O)=O)[C@@H]1CO[C@H]1CC[C@@H](c2ccccc2)CC1 [Compound A]
Key: 92.8

----------
Test: Single dose PK in healthy subjects (Cohorts 1, 2, S1 and S2), plasma
Type: in vivo, human
Conditions: human, plasma, iv, 240 mg, 240 mg single IV infusion; 3 hr After End of Infusions; read-out: Plasma Concentration of Cmpd A, Q3
QUANTITY: concentration at 3 h after end of infusion (ng/mL)
Numbers only, in ng/mL.

Exercise: # concentration at 3 h after end of infusion lookup, item `COC(=O)N1CCC[C@H](NS(C)(=O)=O)[C@@H]1CO[C@H]1CC[C@@H](c2ccccc2)CC1`
Key: 87.1

----------
Assay: Single dose PK in healthy subjects (Cohorts 1, 2, S1 and S2), plasma
Format: in vivo, human
Conditions: human, plasma, iv, 28 mg, 28 mg single IV infusion, healthy subjects; read-out: Vss Mean
QUANTITY: Vd (L)
Numbers only, in L.

Exercise: # Vd lookup, item `COC(=O)N1CCC[C@H](NS(C)(=O)=O)[C@@H]1CO[C@H]1CC[C@@H](c2ccccc2)CC1`
Key: 116

----------
Assay: Single dose PK in healthy subjects (Cohorts 1, 2, S1 and S2), plasma
Format: in vivo, human
Conditions: human, plasma, iv, 7 mg, 7 mg single IV infusion, healthy subjects; read-out: Cmax Mean
Excerpt: […]
QUANTITY: Cmax

Exercise: # Cmax lookup, item `COC(=O)N1CCC[C@H](NS(C)(=O)=O)[C@@H]1CO[C@H]1CC[C@@H](c2ccccc2)CC1`
Key: 0.0169 µg/mL

----------
Test: Single dose PK in patients with narcolepsy (Cohorts 5, 6 and 7), plasma
Assay type: in vivo, human
Details: human, plasma, intravenous, 11.2 mg, Cmpd A 11.2 mg; Median; Cohort 5, 6, 7
QUANTITY: Cmax (ng/mL)
Answers are plain numbers, in ng/mL.

Exercise: # Cmax lookup, item `COC(=O)N1CCC[C@H](NS(C)(=O)=O)[C@@H]1CO[C@H]1CC[C@@H](c2ccccc2)CC1`
Key: 22.3

----------
Test: Single dose PK in patients with narcolepsy (Cohorts 5, 6 and 7), plasma
Assay type: in vivo, human
Conditions: human, plasma, intravenous, 44.8 mg, Cmpd A 44.8 mg; Geo Mean; Cohort 5, 6, 7; read-out: AUC24
QUANTITY: AUC (ng·h/mL)
Give bare numbers, in ng·h/mL.

Exercise: # AUC lookup, item `COC(=O)N1CCC[C@H](NS(C)(=O)=O)[C@@H]1CO[C@H]1CC[C@@H](c2ccccc2)CC1`
Key: 911

----------
Experiment: Single dose PK in healthy subjects (Cohorts 1, 2, S1 and S2), plasma
Format: in vivo, human
Conditions: human, plasma, intravenous, 134.4 mg; 1.5 hr; read-out: Plasma concentration, Q3
QUANTITY: concentration at 1.5 h (ng/mL)
One number for each entry, in ng/mL.

Exercise: # concentration at 1.5 h lookup, item `COC(=O)N1CCC[C@H](NS(C)(=O)=O)[C@@H]1CO[C@H]1CC[C@@H](c2ccccc2)CC1`
Key: 250

----------
Assay: Multiple-dose PK of intravenous Compound A in patients with NT1 (Cohorts B1, B2), plasma
Format: in vivo, human
Details: human, plasma, intravenous, 44 mg; Day 7; read-out: AUCtau, Geo Mean
QUANTITY: AUC (ng·h/mL)
Answers are plain numbers, in ng·h/mL.

Exercise: # AUC lookup, item `COC(=O)N1CCC[C@H](NS(C)(=O)=O)[C@@H]1CO[C@H]1CC[C@@H](c2ccccc2)CC1`
Key: 723

----------
Assay: Single dose PK in healthy subjects (Cohorts 1, 2, S1 and S2), plasma
Format: in vivo, human
Settings: human, plasma, iv, 240 mg, 240 mg single IV infusion; 15 hr After End of Infusions; read-out: Plasma Concentration of Cmpd A, Maximum
QUANTITY: concentration at 15 h after end of infusion (ng/mL)
Give bare numbers, in ng/mL.

Exercise: # concentration at 15 h after end of infusion lookup, item COC(=O)N1CCC[C@H](NS(C)(=O)=O)[C@@H]1CO[C@H]1CC[C@@H](c2ccccc2)CC1 [Compound A]
Key: 9.71

----------
Test: Single dose PK in patients with narcolepsy (Cohorts 5, 6 and 7), plasma
Type: in vivo, human
Settings: human, plasma, iv, 44.8 mg; 1 hr; NT1, single 9 h IV infusion; read-out: Plasma concentration, Median
Source text: […]
QUANTITY: concentration at 1 h (ng/mL)
Answers are plain numbers, in ng/mL.

Exercise: # concentration at 1 h lookup, item `COC(=O)N1CCC[C@H](NS(C)(=O)=O)[C@@H]1CO[C@H]1CC[C@@H](c2ccccc2)CC1`
Key: 56.5

----------
Test: Single dose PK in patients with narcolepsy (Cohorts 5, 6 and 7), plasma
Type: in vivo, human
Conditions: human, plasma, intravenous, 44.8 mg, Cmpd A 44.8 mg; Geo Mean; Cohort 5, 6, 7
QUANTITY: Cmax (ng/mL)
Numbers only, in ng/mL.

Exercise: # Cmax lookup, item COC(=O)N1CCC[C@H](NS(C)(=O)=O)[C@@H]1CO[C@H]1CC[C@@H](c2ccccc2)CC1 [Compound A]
Key: 96.5

----------
Experiment: Single dose PK in healthy subjects (Cohorts 1, 2, S1 and S2), plasma
Format: in vivo, human
Conditions: human, plasma, intravenous, 28 mg; 9 hr; read-out: Plasma concentration, Q3
QUANTITY: concentration at 9 hr (ng/mL)
Numbers only, in ng/mL.

Exercise: # concentration at 9 hr lookup, item `COC(=O)N1CCC[C@H](NS(C)(=O)=O)[C@@H]1CO[C@H]1CC[C@@H](c2ccccc2)CC1`
Key: 57.4

----------
Experiment: Single dose PK in healthy subjects (Cohorts 1, 2, S1 and S2), plasma
Assay type: in vivo, human
Conditions: human, plasma, iv, 112 mg, 112 mg single IV infusion, healthy subjects; read-out: AUC24 Geo Mean
QUANTITY: AUC (ng·h/mL)
Give bare numbers, in ng·h/mL.

Exercise: # AUC lookup, item `COC(=O)N1CCC[C@H](NS(C)(=O)=O)[C@@H]1CO[C@H]1CC[C@@H](c2ccccc2)CC1`
Key: 2070
